Source listed as PubChem BioAssay AID1996.

Conditions: buffer; pH 7.4; 200.0 µM
readout.name: solubility kinetic

Item: C/C(=N/OC(=O)CC(C)C)c1cc(-c2ccc(Cl)cc2)no1 | solubility kinetic: < 0.3 µg/mL

Item: CCOC(=O)c1ccc(NC(=O)Cc2cccs2)cc1 | solubility kinetic: > 43.4 µg/mL

Item: CC(=O)c1cc2c(cc1NC(=O)c1ccc(Cl)cc1)OCCO2 | solubility kinetic: < 0.7 µg/mL

Item: Cc1ccc(NC(=O)NCCCN2CCCC2=O)cc1Cl | solubility kinetic: > 46.5 µg/mL

Item: Clc1nc(N2CCOCC2)ncc1Br | solubility kinetic: > 41.8 µg/mL

Item: CC(C)(C)NC(=O)Cn1c(Cl)nc2ccccc21 | solubility kinetic: > 39.9 µg/mL

Item: O=C(COc1ccc(C(=O)O)cc1)Nc1cccc(C(F)(F)F)c1 | solubility kinetic: > 50.9 µg/mL

Item: COC(=O)CC1=C(C(=O)OC)[C@@H](c2ccccc2[N+](=O)[O-])C(C#N)=C(N)O1 | solubility kinetic: > 56 µg/mL

Item: OCCNc1cc(Cl)ncn1 | solubility kinetic: > 26 µg/mL

Item: COC(=O)Cn1c(N2CCCC2)nc2c1c(=O)n(C)c(=O)n2C | solubility kinetic: > 48.2 µg/mL

Item: Cc1ccnc(SCC(=O)c2cccs2)n1 | solubility kinetic: > 37.5 µg/mL
